Values were extracted from PubChem BioAssay AID449728.

- Assay explanation: bacterial viability reduction in E. coli – absorbance, OD600, counter-screen for AddAB inhibitor project, primary screen (AID 449728);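 note: uninfected addAB+ strain grown without phage in ampicillin broth; 0% = DMSO wells and 100% = ciprofloxacin 0.95 µg/ml wells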
- Experimental setup: E. coli V3065 growth, 18 h, at 11.9 µM, hits give high values
In all, about 330,000 compounds went through this assay and about 900 (0.27%) were called active. The entries come from a sample that favours actives as a whole.
Could you please report measured inhibition for the items listed next?
Answers are plain numbers, in %.

[[record]]
molecule = "O=C(Nc1ccc2nc3n(c(=O)c2c1)CCCC3)c1ccc(Cl)nc1"
quantitative_result = -2.17

[[record]]
molecule = "CCCCCCn1cc(C(=O)O)c(=O)c2cc(F)c(N3CCCCC3)cc21"
quantitative_result = 1.34

[[record]]
molecule = "Oc1c(Cl)cc(Cl)c(Cl)c1Cc1c(O)c(Cl)cc(Cl)c1Cl"
quantitative_result = 12.2

[[record]]
molecule = "Oc1c(Br)cccc1/C=N/Nc1c(F)c(F)c(F)c(F)c1F"
quantitative_result = 0.5

[[record]]
molecule = "Nc1nonc1-n1nnc(C(=O)N/N=C/c2cc(Br)ccc2O)c1CSC1=NCCS1"
quantitative_result = 12.6


Each compound below has a reported value. Please supply its inhibition.
1. CCn1cc(C(=O)NCCC(=O)NCCO)c(=O)c2cc3c(cc21)OCO3
2. CCn1cc(S(=O)(=O)c2cccc(C)c2)c(=O)c2cc(F)c(N3CCN(C)CC3)cc21
3. CN(C)CCCn1c(SCc2ccc(Cl)cc2)nnc1-c1ccncc1
4. O=C(/C=C/c1ccccc1Cl)Nc1ccc(S(=O)(=O)Nc2ncccn2)cc1

Ans.
1. 1.2
2. -4.05
3. -1.29
4. 0.84

----------
- Assay explanation: bacterial viability reduction in E. coli – absorbance, OD600, counter-screen for AddAB inhibitor project, primary screen (AID 449728);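 note: uninfected addAB+ strain grown without phage in ampicillin broth; 0% = DMSO wells and 100% = ciprofloxacin 0.95 µg/ml wells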
- Experimental setup: E. coli V3065 growth, 18 h, at 11.9 µM, hits give high values
The campaign covered roughly 330,000 compounds. About 900 (0.27%) were called active. The sample as a whole holds a higher share of actives than the screen did.
Mark satisfied for reported inhibition of 0.5% or greater; mark not satisfied for anything smaller.

Answered cases to consult:
[[record]]
molecule = "Cc1ccc(NC(=O)CN(C)C(=O)c2ccc(Br)o2)cc1"
discrete_label = "not satisfied"

[[record]]
molecule = "COc1ccc(-c2ccc(CCC(=O)O)n2NC(=O)c2ccc(C(C)(C)C)cc2)cc1"
discrete_label = "satisfied"

[[record]]
molecule = "O=C(Nc1cccc2c1N(C(=O)c1ccco1)CCC2)c1ccco1"
discrete_label = "satisfied"


Okay, now this compound:
Qu. Please check the record O=C(NCCc1c[nH]c2ccccc12)c1cc2ccccc2oc1=O and state if its inhibition is at or above 0.5%.
Ans. not satisfied

----------
- Assay explanation: bacterial viability reduction in E. coli – absorbance, OD600, counter-screen for AddAB inhibitor project, primary screen (AID 449728);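 note: uninfected addAB+ strain grown without phage in ampicillin broth; 0% = DMSO wells and 100% = ciprofloxacin 0.95 µg/ml wells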
- Experimental setup: E. coli V3065 growth, 18 h, at 11.9 µM, hits give high values
The whole screen tested about 330,000 compounds, of which about 900 (0.27%) were called active. The list comes from a sample in which actives are over-represented; it also holds close analogues and randomly drawn compounds.
Recorded endpoint: inhibition (%)
One number for each entry, in %.

Fill in inhibition for each of the 3 compounds listed.
1. COc1ccc([C@H]2CC(=O)C=C(/C=C/c3ccccc3)C2)cc1
2. COc1cc(NS(=O)(=O)c2ccc(NC(=O)c3ccc([N+](=O)[O-])cc3)cc2)ncn1
3. COc1cc(NC(=S)NCc2ccco2)c(OC)cc1Cl

Ans.
1: -0.71; 2: 1.53; 3: -0.7

For each of the compounds below, note its inhibition.
1. O=C(/C=C/c1ccc([N+](=O)[O-])o1)NNC(=O)c1ccc(F)cc1
2. CCn1c(=O)c(C(=O)NCc2ccc3c(c2)OCO3)c(O)c2ccccc21
3. COc1cc(OC)c2c(c1)OC(=O)CC2c1cc(OC)c(OC)c(OC)c1 (stereo not drawn)
4. O=C(Cc1c(F)cccc1Cl)Nc1ncc([N+](=O)[O-])s1

Ans.
1. 97.9
2. 0.18
3. 2.5
4. 7.15

----------
- Assay explanation: bacterial viability reduction in E. coli – absorbance, OD600, counter-screen for AddAB inhibitor project, primary screen (AID 449728);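 note: uninfected addAB+ strain grown without phage in ampicillin broth; 0% = DMSO wells and 100% = ciprofloxacin 0.95 µg/ml wells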
- Experimental setup: E. coli V3065 growth, 18 h, at 11.9 µM
The campaign covered roughly 330,000 compounds. About 900 (0.27%) were called active.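 The calls were made as follows: active = inhibition above the campaign's mean inhibition across all tested compounds plus 3 SD (cut at about 9.9% in these data); inactive = the rest.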 This is one part of a sample in which actives are shown more often than they occur.
Give your call using only these classes: Yes = active, No = inactive

Please review the following examples before continuing.
[[record]]
compound = "COc1ccc(C(=O)c2oc3ccc(Br)cc3c2NC(C)=O)cc1"
discrete_label = "Yes"

[[record]]
compound = "COc1ccc2oc(=N)c(C(=O)Nc3ccc(Br)cc3)cc2c1"
discrete_label = "No"

[[record]]
compound = "O=c1ccc2c(-c3ccccc3S(=O)(=O)O)c3ccc(O)c(O)c3oc-2c1O"
discrete_label = "Yes"

[[record]]
compound = "Cc1cc(C)cc(C(=O)NC2C(=O)N3C(C(=O)O)=C(CSc4nnc(C)s4)CSC23)c1 (stereo unspecified)"
discrete_label = "No"

[[record]]
compound = "COc1ccc(CSc2nnnn2-c2ccc(O)cc2)cc1F"
discrete_label = "No"


Then this compound:
Qu. // outcome(item) with item = CC(=O)NC(=S)Nc1ccc(NC(=S)NC(=O)c2ccc([N+](=O)[O-])cc2)cc1
Ans. No
